- Tested on: Penicillium cyclopium
- MEASUREMENT DESCRIPTION: Fungicidal activity against Penicillium verrucosum var. cyclopium food isolate incubated for 72 hrs followed by sub-culturing on broth malt medium and measured after 72 hrs
- Format: functional
Recorded MFC, one value per entry.
Give just the number in ×10⁻² mM; leave the unit off.

Worked examples follow.
CCOc1ccc2c(c1)-c1c(ssc1=S)C(C)(C)N2; 23.6
CC1(C)c2ssc(=S)c2-c2ccccc2N1C(=O)CSC1=NCCS1; 7.06
COc1cc2c(c([N+](=O)[O-])c1)NC(C)(C)c1ssc(=S)c1-2; 17.6
CC1(C)c2ssc(=S)c2-c2ccccc2N1C(=O)CN1C(=O)CCC1=O; 29.7
Cc1ccc2c(c1)-c1c(ssc1=S)C(C)(C)N2C(=O)CSc1nn(-c2ccccc2)c(=S)s1; 44

-- ask Which MFC is reported with Penicillium cyclopium for this entry: COc1ccc2c(c1)-c1c(ssc1=S)C(C)(C)N2C(=O)CSc1nc2ccccc2s1 ?
-- reply 2.98

-- ask Which MFC is reported with Penicillium cyclopium for this entry: CCOc1ccc2c(c1)-c1c(ssc1=S)C(C)(C)N2C(=O)c1ccc(Cl)c([N+](=O)[O-])c1 ?
-- reply 48.7
